Experimental details: activity coefficient (dimensionless); of the first substance listed, at infinite dilution; xn = mol fraction of the nth substance listed
Condition summary: 333.15 K; Liquid; Chromatography; x1 = 0
Think of 0.7 as a floor: if activity coefficient stands on it or above, it is yes (1); beneath it, no (0).

Compound | Label value
CCC(C)=O [butanone] + CCCOC[n+]1ccn(C)c1.O=S(=O)([N-]S(=O)(=O)C(F)(F)F)C(F)(F)F | no (0)
ClCCl [dichloromethane] + Cn1cc[n+](COCCCOC[n+]2ccn(C)c2)c1.N#C[N-]C#N.N#C[N-]C#N | yes (1)
CCCCCCCC [octane] + CCCOC[n+]1ccn(C)c1.O=S(=O)([N-]S(=O)(=O)C(F)(F)F)C(F)(F)F | yes (1)
C[N+](=O)[O-] [nitromethane] + CCCOC[n+]1ccn(C)c1.F[B-](F)(F)F | no (0)
CCCCCCCCCCCCC [tridecane] + CCCOC[n+]1ccn(C)c1.N#C[N-]C#N | yes (1)
c1ccncc1 [pyridine] + CCCOC[n+]1ccn(Cc2ccccc2)c1.F[B-](F)(F)F | no (0)
CC(C)OC(C)C [diisopropyl ether] + CN(C)c1cc[n+](COCCCOC[n+]2ccc(N(C)C)cc2)cc1.O=S(=O)([N-]S(=O)(=O)C(F)(F)F)C(F)(F)F.O=S(=O)([N-]S(=O)(=O)C(F)(F)F)C(F)(F)F | yes (1)
Cc1ccccc1 [toluene] + CCCOC[n+]1ccn(Cc2ccccc2)c1.O=S(=O)([N-]S(=O)(=O)C(F)(F)F)C(F)(F)F | yes (1)
CCO [ethanol] + CCCCCCCCn1cc[n+](COCCCOC[n+]2ccn(CCCCCCCC)c2C)c1C.N#C[N-]C#N.N#C[N-]C#N | no (0)
C1CCCCC1 [cyclohexane] + CCCOC[n+]1ccn(C)c1.O=S(=O)([N-]S(=O)(=O)C(F)(F)F)C(F)(F)F | yes (1)
Cc1ccc(C)cc1 [1,4-dimethylbenzene] + Cn1cc[n+](COCCCOC[n+]2ccn(C)c2)c1.O=S(=O)([N-]S(=O)(=O)C(F)(F)F)C(F)(F)F.O=S(=O)([N-]S(=O)(=O)C(F)(F)F)C(F)(F)F | yes (1)
CCCC(C)=O [pentan-2-one] + Cn1cc[n+](COCCCOC[n+]2ccn(C)c2)c1.O=S(=O)([N-]S(=O)(=O)C(F)(F)F)C(F)(F)F.O=S(=O)([N-]S(=O)(=O)C(F)(F)F)C(F)(F)F | no (0)
CCc1ccccc1 [ethylbenzene] + CCCOC[n+]1ccn(C)c1.F[B-](F)(F)F | yes (1)
Cc1ccc(C)cc1 [1,4-dimethylbenzene] + CCCCCCCCn1cc[n+](COCCC)c1C.N#C[N-]C#N | yes (1)
CC(C)CO [2-methyl-1-propanol] + CCCOC[n+]1ccn(Cc2ccccc2)c1.N#C[N-]C#N | yes (1)
CCCCCCCCCC [decane] + N#C[N-]C#N.N#C[N-]C#N.c1ccc(Cn2cc[n+](COCCCOC[n+]3ccn(Cc4ccccc4)c3)c2)cc1 | yes (1)
C#CCCCC [1-hexyne] + N#C[N-]C#N.N#C[N-]C#N.c1ccc(Cn2cc[n+](COCCCOC[n+]3ccn(Cc4ccccc4)c3)c2)cc1 | yes (1)
CCCCCCCC [octane] + CCCCCCCCn1cc[n+](COCCC)c1C.O=S(=O)([N-]S(=O)(=O)C(F)(F)F)C(F)(F)F | yes (1)
CCCCCCCCCC [decane] + CCCCCCCCn1cc[n+](COCCCOC[n+]2ccn(CCCCCCCC)c2C)c1C.O=S(=O)([N-]S(=O)(=O)C(F)(F)F)C(F)(F)F.O=S(=O)([N-]S(=O)(=O)C(F)(F)F)C(F)(F)F | yes (1)
C[N+](=O)[O-] [nitromethane] + CCCOC[n+]1ccn(Cc2ccccc2)c1.O=S(=O)([N-]S(=O)(=O)C(F)(F)F)C(F)(F)F | no (0)
ClC(Cl)Cl [trichloromethane] + CCCCCCCCn1cc[n+](COCCC)c1C.O=S(=O)([N-]S(=O)(=O)C(F)(F)F)C(F)(F)F | no (0)
CCCCO [butan-1-ol] + N#C[N-]C#N.N#C[N-]C#N.c1ccc(Cn2cc[n+](COCCCOC[n+]3ccn(Cc4ccccc4)c3)c2)cc1 | yes (1)
C1CCCCC1 [cyclohexane] + CCCCCCCCn1cc[n+](COCCCOC[n+]2ccn(CCCCCCCC)c2C)c1C.N#C[N-]C#N.N#C[N-]C#N | yes (1)
CCC(C)=O [butanone] + CCCOC[n+]1ccn(Cc2ccccc2)c1.F[B-](F)(F)F | yes (1)
CCC(C)=O [butanone] + CCCOC[n+]1ccn(Cc2ccccc2)c1.O=S(=O)([N-]S(=O)(=O)C(F)(F)F)C(F)(F)F | no (0)
c1ccccc1 [benzene] + CCCCCCCCn1cc[n+](COCCCOC[n+]2ccn(CCCCCCCC)c2C)c1C.O=S(=O)([N-]S(=O)(=O)C(F)(F)F)C(F)(F)F.O=S(=O)([N-]S(=O)(=O)C(F)(F)F)C(F)(F)F | no (0)
